[
  {
    "molecule": "N#Cc1ccc2[nH]cc(C3=CCN(CC4COc5cccc6[nH]c(=O)n4c56)CC3)c2c1 (stereo not drawn)",
    "melting point": "> 160 °C"
  },
  {
    "molecule": "O=c1[nH]c2cccc3c2n1C(CN1CC=C(c2c[nH]c4ccccc24)CC1)CO3 (stereo not drawn)",
    "melting point": "147 to 149 °C"
  },
  {
    "molecule": "Cc1nc2cccc3c2n1C(CN1CC=C(c2c[nH]c4ccccc24)CC1)CO3 (stereo not drawn)",
    "melting point": "222 to 225 °C"
  },
  {
    "molecule": "O=c1[nH]c2cccc3c2n1C(CN1CC=C(c2c[nH]c4ccc(Cl)cc24)CC1)CO3 (stereo not drawn)",
    "melting point": "153 to 155 °C"
  },
  {
    "molecule": "O=c1[nH]c2cccc3c2n1C(CN1CC=C(c2c[nH]c4c(F)cccc24)CC1)CO3 (stereo not drawn)",
    "melting point": "> 120 °C"
  },
  {
    "molecule": "O=c1[nH]c2cccc3c2n1C(CN1CC=C(c2c[nH]c4ccc(F)cc24)CC1)CO3 (stereo not drawn)",
    "melting point": "152 to 155 °C"
  }
]
